Taken from the Immune Epitope Database (IEDB).

measurementTarget: HLA-A*31:01
assay: IEDB peptide-MHC binding, purified MHC/direct/fluorescence; filed as Kd, often an IC50 or EC50 that approximates it; bounds were set here for any values at or beyond the usual limits of such assays
experimentalParameters: source organism: Salmonella enterica
readout: Kd

| sequenceCode | readout | result |
| --- | --- | --- |
| EIIFYHPTF | Kd | ≥ 20 µM |

###

measurementTarget: HLA-B*15:01
assay: IEDB peptide-MHC binding, purified MHC/competitive/radioactivity; filed as Kd, often an IC50 or EC50 that approximates it; bounds were set here for any values at or beyond the usual limits of such assays
experimentalParameters: source organism: Vaccinia virus
readout: Kd (nM)

| sequenceCode | readout | number |
| --- | --- | --- |
| QTIVFIWFI | Kd | 253 |
